# Tested on: SW-620 colon
# assay-overview: NCI tumour cell line growth inhibition, 48 h; in the data active means GI50 below about 0.43 µM; inactive means the rest
Possible outcomes: active, inactive

> print(dat)
                                   compound     group
1  C[N+]1=C(/C=C\C=C\c2ccccc2)C(C)(C)c2ccccc21  inactive
2  O=C1c2ccccc2-c2c1c1ccccc1c(=O)n2CCCn1ccnc1  inactive
3    COc1ccc(-c2ccc(-c3ccc(C(=N)N)o3)o2)cc1  inactive
4  O=C1C[C@@H]2/C(=C(O)\C=C\c3ccccc3)C(=O)C=C[C@@H]2O1  inactive
5  Cc1ccc(O)c(NC(=O)c2ccc(CNc3ccnc(C(F)(F)F)c3)cc2)c1  inactive
6  Cc1cnc(C(=O)NNc2nc3sc4c(c3c(=O)n2C)C(C)CCC4)cn1 (stereo unspecified)    active

----------
# Tested on: NCI-H522 lung
# assay-overview: NCI tumour cell line growth inhibition, 48 h; in the data active means GI50 below about 0.43 µM; inactive means the rest
Labels: true (1) (active), false (0) (inactive)

query-smiles	measured-on	group
O=C(OC[C@H]1O[C@H](OC(=O)c2cc(O)c(O)c(OC(=O)c3cc(O)c(O)c(O)c3)c2)[C@H](OC(=O)c2cc(O)c(O)c(OC(=O)c3cc(O)c(O)c(O)c3)c2)[C@@H](OC(=O)c2cc(O)c(O)c(OC(=O)c3cc(O)c(O)c(O)c3)c2)[C@@H]1OC(=O)c1cc(O)c(O)c(OC(=O)c2cc(O)c(O)c(O)c2)c1)c1cc(O)c(O)c(OC(=O)c2cc(O)c(O)c(O)c2)c1	NCI-H522 lung	false (0)
O=c1c(-c2ccccc2)coc2cc(OC/C(=N/O)c3ccccc3)ccc12	NCI-H522 lung	false (0)
COC(C)(C)C/C=C/C(C)=C/C=C/C(C)=C\C=C\C(C)=C\C=C\C=C(C)\C=C\C=C(C)\C=C\C=C(C)\C=C\CC(C)(C)OC	NCI-H522 lung	false (0)
Cc1cnc(C(=O)Nc2nc3ccc(S(=O)(=O)Nc4ccc(C5(C(F)(F)F)CC5)cc4)cc3[nH]2)cn1	NCI-H522 lung	true (1)

----------
# Tested on: OVCAR-5 ovarian
# assay-overview: NCI tumour cell line growth inhibition, 48 h
Readings of TGI for the listed molecules
measured-metric: TGI

> print(dat)
                                   molecule      measured.on  measured.metric  reported.value
1  CC(=O)OCC1OC(n2c(-c3ccc(C)cc3)cc(-c3ccccc3)c(C#N)c2=S)C(OC(C)=O)C(OC(C)=O)C1OC(C)=O (centres undefined)  OVCAR-5 ovarian              TGI        > 100 µM
2  O=C1c2ccccc2-c2c1c1ccccc1c(=O)n2CCCn1ccnc1  OVCAR-5 ovarian              TGI         53.6 µM
3  COC(=O)[C@@H](C)C[C@H](Cc1ccccc1)NC(=O)c1csc([C@@H](C[C@H](C(C)C)N(C)C(=O)[C@@H](NC(=O)[C@H]2CCCCN2C)C2CC2)OC(C)=O)n1  OVCAR-5 ovarian              TGI       > 16.5 µM
4  COC(=O)C(CCSC)NC(=O)Cc1ccc(C(=O)c2ccccc2)cc1 (centres undefined)  OVCAR-5 ovarian              TGI        > 100 µM
5  O=C(NCCCCCCNC(=O)c1cc(-c2ccccc2)nc2ccccc12)c1cc(-c2ccccc2)nc2ccccc12  OVCAR-5 ovarian              TGI        > 100 µM
6    O=C1C(=Cc2c(O)cc(O)cc2O)C(=O)c2ccccc21  OVCAR-5 ovarian              TGI       > 57.7 µM
7     OCCNCNc1nc(NCNCCO)nc(N(CNCCO)CNCCO)n1  OVCAR-5 ovarian              TGI           21 µM
8  CCOC(=O)c1[nH]c(COC(C)=O)c2c1CCCCCCCCCC2  OVCAR-5 ovarian              TGI        > 100 µM
9  COc1ccc(C(=O)/C=C/c2cc(O)c(O)c(F)c2F)c(OC)c1  OVCAR-5 ovarian              TGI         95.7 µM

From: PubChem BioAssay (NCI)
